# target-of-assay: Protein cereblon/Glycogen synthase kinase-3 alpha (Homo sapiens, UniProt P49840+Q96SW2)
# Sequence (P49840 2-483 limits assumed): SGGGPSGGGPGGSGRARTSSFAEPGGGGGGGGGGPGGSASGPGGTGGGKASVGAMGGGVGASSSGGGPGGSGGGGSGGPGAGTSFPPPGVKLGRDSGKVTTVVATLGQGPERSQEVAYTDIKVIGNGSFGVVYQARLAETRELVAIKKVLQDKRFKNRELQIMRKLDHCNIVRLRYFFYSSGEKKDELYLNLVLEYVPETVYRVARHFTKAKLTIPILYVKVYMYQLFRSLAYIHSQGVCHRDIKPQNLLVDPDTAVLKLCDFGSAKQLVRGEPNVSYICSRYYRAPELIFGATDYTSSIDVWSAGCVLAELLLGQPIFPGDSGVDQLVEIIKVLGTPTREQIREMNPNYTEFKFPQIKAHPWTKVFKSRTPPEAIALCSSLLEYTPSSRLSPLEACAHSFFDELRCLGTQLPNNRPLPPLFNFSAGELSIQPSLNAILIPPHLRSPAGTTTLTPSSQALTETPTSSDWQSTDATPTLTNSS
# Sequence (Q96SW2 whole entry partner): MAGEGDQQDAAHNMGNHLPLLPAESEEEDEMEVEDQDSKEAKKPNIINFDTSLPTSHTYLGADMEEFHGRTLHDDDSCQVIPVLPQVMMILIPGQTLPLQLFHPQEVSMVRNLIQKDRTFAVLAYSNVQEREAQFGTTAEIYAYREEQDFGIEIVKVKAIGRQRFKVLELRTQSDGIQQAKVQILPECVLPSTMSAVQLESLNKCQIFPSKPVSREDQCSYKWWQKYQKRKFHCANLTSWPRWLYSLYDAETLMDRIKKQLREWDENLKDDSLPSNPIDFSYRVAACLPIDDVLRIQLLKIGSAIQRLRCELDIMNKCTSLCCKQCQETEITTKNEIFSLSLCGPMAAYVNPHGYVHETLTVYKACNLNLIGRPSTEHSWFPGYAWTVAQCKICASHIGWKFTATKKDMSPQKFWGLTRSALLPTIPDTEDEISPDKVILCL
# assay-protocol: Protac activity at CRBN/GSK3alpha in human SH-SY5Y cells assessed as induction of GSK3alpha degradation at 0.1 uM measured after 24 hrs
# Format: cell-based
property-name: Activity (%)
Response body: numeric value in %, unit text excluded.

Fill in: Activity of Nc1ncc(-c2ccc(S(=O)(=O)N3CCN(CCCCc4cn(CCOCCOCCOCCOCCOCCOCCNc5cccc6c5C(=O)N(C5CCC(=O)NC5=O)C6=O)nn4)CC3)cc2)nc1C(=O)Nc1cccnc1 (stereo not given) is ___
71.9

Fill in: Activity of Nc1ncc(-c2ccc(S(=O)(=O)N3CCN(CCc4cn(CCOCCOCCOCCOCCOCCNc5cccc6c5C(=O)N(C5CCC(=O)NC5=O)C6=O)nn4)CC3)cc2)nc1C(=O)Nc1cccnc1 (stereo not given) is ___
68.1

Fill in: Activity of Nc1ncc(-c2ccc(S(=O)(=O)N3CCN(CCCCc4cn(CCOCCOCCOCCOCCNc5cccc6c5C(=O)N(C5CCC(=O)NC5=O)C6=O)nn4)CC3)cc2)nc1C(=O)Nc1cccnc1 (stereo not given) is ___
68.5

Fill in: Activity of Nc1ncc(-c2ccc(S(=O)(=O)N3CCN(CCc4cn(CCOCCOCCOCCNc5cccc6c5C(=O)N(C5CCC(=O)NC5=O)C6=O)nn4)CC3)cc2)nc1C(=O)Nc1cccnc1 (stereo not given) is ___
65

Fill in: Activity of Nc1ncc(-c2ccc(S(=O)(=O)N3CCN(CCCCc4cn(CCOCCOCCOCCNc5cccc6c5C(=O)N(C5CCC(=O)NC5=O)C6=O)nn4)CC3)cc2)nc1C(=O)Nc1cccnc1 (stereo not given) is ___
69.3

====

# target-of-assay: Protein cereblon/Glycogen synthase kinase-3 alpha (Homo sapiens, UniProt P49840+Q96SW2)
# assay-protocol: Protac activity at CRBN/GSK3alpha in human SH-SY5Y cells assessed as induction of GSK3alpha protein degradation at 1 uM measured after 24 hrs
# Assay type: cell-based
property-name: Activity (%)
Response body: numeric value in %, unit text excluded.

Fill in: Activity of Nc1ncc(-c2ccc(S(=O)(=O)N3CCN(CCCCc4cn(CCOCCOCCOCCOCCOCCOCCNc5cccc6c5C(=O)N(C5CCC(=O)NC5=O)C6=O)nn4)CC3)cc2)nc1C(=O)Nc1cccnc1 (configuration not stated) is ___
91.4

Fill in: Activity of Nc1ncc(-c2ccc(S(=O)(=O)N3CCN(Cc4cn(CCOCCOCCOCCOCCOCCNc5cccc6c5C(=O)N(C5CCC(=O)NC5=O)C6=O)nn4)CC3)cc2)nc1C(=O)Nc1cccnc1 (configuration not stated) is ___
77.2

Fill in: Activity of COc1ccc(-c2ocnc2C(=O)NCCCc2cn(CCOCCOCCOCCOCCNc3cccc4c3C(=O)N(C3CCC(=O)NC3=O)C4=O)nn2)cc1I (configuration not stated) is ___
46.5

Fill in: Activity of Nc1ncc(-c2ccc(S(=O)(=O)N3CCN(Cc4cn(CCOCCOCCOCCOCCOCCOCCNc5cccc6c5C(=O)N(C5CCC(=O)NC5=O)C6=O)nn4)CC3)cc2)nc1C(=O)Nc1cccnc1 (configuration not stated) is ___
75.4

Fill in: Activity of COc1ccc(-c2ocnc2C(=O)NCCCc2cn(CCOCCOCCOCCOCCOCCNc3cccc4c3C(=O)N(C3CCC(=O)NC3=O)C4=O)nn2)cc1Cl (configuration not stated) is ___
56.2

Fill in: Activity of Nc1ncc(-c2ccc(S(=O)(=O)N3CCN(CCc4cn(CCOCCOCCNc5cccc6c5C(=O)N(C5CCC(=O)NC5=O)C6=O)nn4)CC3)cc2)nc1C(=O)Nc1cccnc1 (configuration not stated) is ___
95.2

Fill in: Activity of COc1ccc(-c2ocnc2C(=O)NCCCc2cn(CCOCCOCCOCCOCCOCCNc3cccc4c3C(=O)N(C3CCC(=O)NC3=O)C4=O)nn2)cc1I (configuration not stated) is ___
55.6

Fill in: Activity of COc1ccc(-c2ocnc2C(=O)NCCCc2cn(CCOCCOCCOCCOCCNc3cccc4c3C(=O)N(C3CCC(=O)NC3=O)C4=O)nn2)cc1Cl (configuration not stated) is ___
69.5

Fill in: Activity of Nc1ncc(-c2ccc(S(=O)(=O)N3CCN(CCCCc4cn(CCOCCOCCOCCNc5cccc6c5C(=O)N(C5CCC(=O)NC5=O)C6=O)nn4)CC3)cc2)nc1C(=O)Nc1cccnc1 (configuration not stated) is ___
93.8

Just for reference, ChEMBL document CHEMBL5038618 is where these values come from.
